Target: T1, human RANK-L (human, UniProt O14788 140-317, limits assumed)
T1 construct: Soluble protein, used coated, biotinylated or labelled in ELISA, AlphaScreen, FMAT and Biacore; also called hRANK-L; soluble human RANK-L
T1 sequence (looked up): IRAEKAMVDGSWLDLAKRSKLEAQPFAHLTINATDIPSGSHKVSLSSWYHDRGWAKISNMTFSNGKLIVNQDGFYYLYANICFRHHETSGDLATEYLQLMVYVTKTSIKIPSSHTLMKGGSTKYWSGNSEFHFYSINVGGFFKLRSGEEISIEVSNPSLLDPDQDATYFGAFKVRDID
Assay: FMAT, ALEXA647-hRANK-L / RANK on HEK293T cells
Each entry below carries its recorded IC50.
Be sure to follow the number with its unit.

[[record]]
binder = "RANKL93biv (VHH, Bivalent Nanobody; also called RANKL9-30GS-RANKL9) EVQLVESGGGLVQAGGSLRLTCAASGRTFRSYAMGWFRQAPGKEREFVAAINYSGGSTNYADSVKGRFTISRDNAKNTLYLQMNSLEPEDTAVYYCAAGSGYASLSYYSTERAYTYWGQGTQVTVSSGGGGSGGGGSGGGGSGGGGSGGGGSGGGGSEVQLVESGGGLVQAGGSLRLTCAASGRTFRSYAMGWFRQAPGKEREFVAAINYSGGSTNYADSVKGRFTISRDNAKNTLYLQMNSLEPEDTAVYYCAAGSGYASLSYYSTERAYTYWGQGTQVTVSS"
result = "0.048 nM"

[[record]]
binder = "RANKL18hum6Bi_25 (VHH, Bivalent humanized Nanobody; also called RANKL18Hum6-25GS-RANKL18Hum6) EVQLVESGGGLVQPGGSLRLSCAASGRTFSRSAMGWFRQAPGKGREFVGFITGSGGTTYYADSVKGRFTISRDNAQNPVYLQMNSLRPEDTAVYYCAVYRRTYISSTYSESSEYDYWGQGTLVTVSSGGGGSGGGGSGGGGSGGGGSGGGGSEVQLVESGGGLVQPGGSLRLSCAASGRTFSRSAMGWFRQAPGKGREFVGFITGSGGTTYYADSVKGRFTISRDNAQNPVYLQMNSLRPEDTAVYYCAVYRRTYISSTYSESSEYDYWGQGTLVTVSS"
result = "0.038 nM"

[[record]]
binder = "RANKL18 (VHH, not shown: small tags and cut ends) VHH: EVQLVESGGGLVQAGGSLRLSCAASGRTFSRSAMGWFRQAPGKEREFVGFITGSGGTTYYGESVKGRFTISRDNAQNPVYLQMNSLKPEDTAVYYCGVYRRTYISSTYSESSEYDYWGQGTQVTVSS"
result = "0.253 nM"


[in] Requested read-out: IC50. Entry: RANKL9 (VHH, not shown: c-myc and His6 tags) VHH: EVQLVESGGGLVQAGGSLRLTCAASGRTFRSYAMGWFRQAPGKEREFVAAINYSGGSTNYADSVKGRFTISRDNAKNTLYLQMNSLEPEDTAVYYCAAGSGYASLSYYSTERAYTYWGQGTQVTVSS
[out] 0.13 nM
